- assay-overview: PK test of in vivo efficacy: plasma and tumor tissue drug concentration on day 20 of the CT26 study
- Parameters: species or system BALB/C mice
- condition-set: BALB/C, mouse, plasma, po, 50 mg/kg, Group 7: 50 mg/kg twice a day PO alone; day 20; plasma
Counter-ions that a name gives are not always drawn.
readout-kind: Cmax (µM)
Answers are plain numbers, in µM.

Please give the measured Cmax for this molecule: Nc1nc(-c2ccc(F)cc2)c(-c2ccc3ncnn3c2)c2nccnc12 [Embodiment 6 hydrochloride]
30.1

###

- assay-overview: PK test of in vivo efficacy: plasma and tumor tissue drug concentration on day 20 of the CT26 study
- Set-up: species or system BALB/C mice
- condition-set: BALB/c, mouse, tumor tissue / plasma, oral, 25 mpk, Group 4, 25 mpk + CS1003; time point 4 h; read-out: T/P* Ratio (tumor tissue / plasma drug concentration)
Where a name gives a salt, the structure may show the parent alone.
readout-kind: Kp at 4 h
One number for each entry.

Please give the measured Kp at 4 h for this compound: Nc1nc(-c2ccc(F)cc2)c(-c2ccc3ncnn3c2)c2nccnc12 [Embodiment 6 hydrochloride]
0.9

###

- assay-overview: PK test of in vivo efficacy: plasma and tumor tissue drug concentration on day 20 of the CT26 study
- Parameters: species or system BALB/C mice
- condition-set: BALB/C, mouse, oral, 100 mg/kg; Group 3, 100 mpk alone; time point 4 h; tumor tissue
Structures can show the parent of a compound that is named as a salt.
readout-kind: concentration at 4 h
Respond with a number, then the unit of measure.

Please give the measured concentration at 4 h for this compound: Nc1nc(-c2ccc(F)cc2)c(-c2ccc3ncnn3c2)c2nccnc12 [Embodiment 6 hydrochloride]
10.6 µM

###

- assay-overview: PK test of in vivo efficacy: plasma and tumor tissue drug concentration on day 20 of the CT26 study
- Parameters: species or system BALB/C mice
- condition-set: BALB/C, mouse, plasma, po, 25 mg/kg, Group 4: 25 mg/kg once a day PO + CS1003 1 mg/kg; day 20; plasma
Structures can show the parent of a compound that is named as a salt.
readout-kind: Tmax (min)
Answers are plain numbers, in min.

Please give the measured Tmax for this compound: Nc1nc(-c2ccc(F)cc2)c(-c2ccc3ncnn3c2)c2nccnc12 [Embodiment 6 hydrochloride]
30

###

- assay-overview: PK test of in vivo efficacy: plasma and tumor tissue drug concentration on day 20 of the CT26 study
- Parameters: species or system BALB/C mice
- condition-set: BALB/C, mouse, plasma, po, 50 mg/kg, Group 8: 50 mg/kg twice a day PO + CS1003 1 mg/kg; day 20; plasma
Structures can show the parent of a compound that is named as a salt.
readout-kind: AUC(0-t) (µM·h)
Numbers only, in µM·h.

Please give the measured AUC(0-t) for this compound: Nc1nc(-c2ccc(F)cc2)c(-c2ccc3ncnn3c2)c2nccnc12 [Embodiment 6 hydrochloride]
77.9

###

Please go through the items and note down their IC50.
- measured-on: Human Adenosine A2a Receptor (Homo sapiens, UniProt P29274)
- Sequence (P29274 whole entry): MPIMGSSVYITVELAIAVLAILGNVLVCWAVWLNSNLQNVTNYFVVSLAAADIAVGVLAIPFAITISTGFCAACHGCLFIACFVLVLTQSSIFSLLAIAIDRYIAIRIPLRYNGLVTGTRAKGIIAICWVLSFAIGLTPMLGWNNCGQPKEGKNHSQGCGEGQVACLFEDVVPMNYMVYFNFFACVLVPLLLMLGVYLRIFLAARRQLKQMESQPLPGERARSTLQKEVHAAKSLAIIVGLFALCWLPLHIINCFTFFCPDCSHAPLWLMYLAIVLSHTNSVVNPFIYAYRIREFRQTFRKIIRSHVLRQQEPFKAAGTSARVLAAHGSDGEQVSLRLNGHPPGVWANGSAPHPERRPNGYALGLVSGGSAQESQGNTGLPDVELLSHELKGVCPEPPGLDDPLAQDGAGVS
- assay-overview: Human adenosine A2a receptor calcium flow detection experiment (FLIPR, Fluo-4, NECA agonist)
- condition-set: A2a stable CHO cell line, antagonist mode vs NECA at EC80
Give bare numbers, in nM.

{"compound-structure-string": "Nc1nc(-c2ccc(F)cc2)c(-c2ccc3nnccc3c2)c2nccnc12", "measured-on": "Human Adenosine A2a Receptor (Homo sapiens, UniProt P29274)", "reported": 9.4}
{"compound-structure-string": "Nc1nc(-c2ccc(F)cc2)c(-c2ccc3nccnc3c2)c2nccnc12", "measured-on": "Human Adenosine A2a Receptor (Homo sapiens, UniProt P29274)", "reported": 27.8}
{"compound-structure-string": "Nc1nc(-c2ccc(Cl)s2)c(-c2ccc3ncnn3c2)c2nccnc12", "measured-on": "Human Adenosine A2a Receptor (Homo sapiens, UniProt P29274)", "reported": 1.8}

Would you mind listing IC50 for each of the following compounds?
1. Nc1nc(-c2ccc(F)cc2)c(-c2ccc3ncncc3c2)c2nccnc12
2. Nc1nc(-c2ccc(F)cc2)c(-c2ccn3ncnc3c2)c2nccnc12
3. Nc1nc(-c2ccc(F)cc2)c(-c2cc(F)c3ncccc3c2)c2nccnc12
4. Nc1nc(-c2ccc(F)cc2)c(-c2ccc3[nH]nc(Cl)c3c2)c2nccnc12

1. 0.76
2. 31.4
3. 0.8
4. 38

Hey, just so you know, these numbers are from patent US11312715B2.
